These measurements were taken from paper PMC3735172.

I'd appreciate it if you could supply Kd values for the items below.
Target: T1, MtAlba(R39) (Methanothermobacter thermautotrophicus, UniProt O27527 1-91, I39R)
T1 sequence: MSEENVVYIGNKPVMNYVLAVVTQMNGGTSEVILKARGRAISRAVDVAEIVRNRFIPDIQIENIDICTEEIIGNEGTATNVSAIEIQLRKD
Test: EMSA

Which value of Kd has been reported for UUAAAGCCCGUGGAAGAGCC (ssRNA) [ssRNA] in the records? ~1500 nM

Can you share its Kd? I mean this binder: tRNAPro (structured_RNA) RNA: GGGCGAGUAGCGCAGCUUGGUAGCGCAACUGGUUUGGGACCAGUGGGUCGGAGGUUCGAAUCCUCUCUCGUCCACCA ~1000 nM

Given the binder 36 bp dsDNA (dsDNA) DNA 1: ATCAATTAAAGCGTTCTACGGCGTTTTAGATCTGAT DNA 2: ATCAGATCTAAAACGCCGTAGAACGCTTTAATTGAT , what is its reported Kd? ~200 nM
